test-target: human 5-HT1A receptors (Homo sapiens)
Construct: expressed in transfected cells; host or cells: CHO cells
Sequence (P08908 1-422): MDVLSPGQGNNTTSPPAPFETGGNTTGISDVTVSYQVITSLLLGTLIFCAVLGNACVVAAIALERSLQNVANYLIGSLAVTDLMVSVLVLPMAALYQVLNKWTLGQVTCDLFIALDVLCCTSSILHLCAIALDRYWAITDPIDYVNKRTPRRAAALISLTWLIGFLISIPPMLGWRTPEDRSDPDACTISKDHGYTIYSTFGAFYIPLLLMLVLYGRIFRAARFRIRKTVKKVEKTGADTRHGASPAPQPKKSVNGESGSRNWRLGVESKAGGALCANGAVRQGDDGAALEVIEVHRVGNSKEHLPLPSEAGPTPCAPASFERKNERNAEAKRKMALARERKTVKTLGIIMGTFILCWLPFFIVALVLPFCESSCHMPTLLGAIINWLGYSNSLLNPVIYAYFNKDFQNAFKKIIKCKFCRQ
method-notes: [3H] 8-OHDPAT displacement, 5-HT1A receptor affinity
Format: binding
measurement-conditions: displacement of [3H] 8-OHDPAT; CHO cells stably transfected with human 5-HT1A receptors; read-out: 5-HT1A Receptor Affinity KI
observable: pKi
The read-out pKi is expressed as -log10 of concentration in moles per litre.

Form: compound = O=C1CCOc2c1ccc1c2OC(CN2CC=C(c3c[nH]c4ccccc34)CC2)CO1 (stereo not shown) ; pKi = 6.81
